Let's look at some compounds and their measured pIC50.
# Test Target: APOL1 (Homo sapiens)
# Assay Name: MultiTox-Fluor Multiplex Cytotoxicity Assay, tet-inducible APOL1 T-REx-HEK293 cells (G0, G1 or G2 clone not specified for Table 20)
# Experimental Context: tet-induced, 24 hours with compound, ratio of dead to live cells, read-out: IP50 (i.e., IC50 for cell proliferation)
pIC50: −log10 of the molar value.
Measured Quantity: pIC50

> print(dat)
                                    compound  measured.quantity  observed.measurement
 1  C[C@H]1C[C@@]2(CCN1Cc1cnn(CCO)c1)OCCc1ccc(Cl)cc12              pIC50                ≥ 7.30
 2  NC(=O)C1OC2(CCN(Cc3cnccn3)CC2)c2cc(Cl)ccc21 (centres unmarked)              pIC50                ≤ 6.30
 3  CS(=O)(=O)CCn1cc(CN2CCC3(CC2)C(=O)N(CCO)c2ccc(Cl)cc23)cn1              pIC50          6.30 to 7.30
 4  NC(=O)C1OC2(CCN(Cc3c[nH]c4nccnc34)CC2)c2cc(Cl)ccc21 (centres unmarked)              pIC50                ≥ 7.30
 5  Cc1cccc(CN2CCC3(CC2)OC(C(N)=O)c2ccc(Cl)cc23)n1 (centres unmarked)              pIC50                ≤ 6.30
 6  Cc1nc(CN2CCC3(CC2)OC(C(N)=O)c2ccc(Cl)cc23)co1 (centres unmarked)              pIC50                ≤ 6.30
 7  Cc1ccc(Cn2cc(CN3CC[C@]4(C[C@@H]3C)OCCc3ccc(Cl)cc34)nn2)c(=O)[nH]1              pIC50          6.30 to 7.30
 8  C[C@H]1C[C@@]2(CCN1Cc1cn(CC(=O)NCC3(C#N)CC3)nn1)OCCc1ccc(Cl)cc12              pIC50                ≥ 7.30
 9  O=C1Nc2ccc(Cl)cc2C12CCN(Cc1cnn(CCO)c1)CC2              pIC50                ≤ 6.30
10  C[C@H]1CC2(CCN1Cc1cnn(-c3ccccc3)c1)OC(C(N)=O)c1ccc(Cl)cc12 (some centres unmarked) [Compound 292]              pIC50                ≥ 7.30
11  CC(C)(O)[C@H](O)Cn1cc(CN2CCC3(CC2)OC(C(N)=O)c2ccc(Cl)cc23)cn1 (some centres unmarked)              pIC50                ≥ 7.30
12  CN1C(=O)C2(CCN(Cc3cnc(NC(C)(C)CO)nc3)CC2)c2cc(Cl)ccc21              pIC50          6.30 to 7.30
13  Cc1cc(C(=O)N[C@H]2C[C@H](Cn3cc(CN4CCC5(CC4)C(=O)N(C)c4ccc(Cl)cc45)cn3)C2)on1              pIC50                ≤ 6.30
14  C[C@H]1C[C@@]2(CCN1Cc1cn(CCNS(=O)(=O)C3CC3)nn1)OCCc1ccc(Cl)cc12              pIC50                ≥ 7.30
15  NC(=O)C1OC2(CCN(Cc3cnn(-c4ccccn4)c3)CC2)c2cc(Cl)ccc21 (centres unmarked)              pIC50                ≥ 7.30
16  NC(=O)C1OC2(CCN(Cc3cc(C4CC4)[nH]n3)CC2)c2cc(Cl)ccc21 (centres unmarked)              pIC50          6.30 to 7.30
17  Cc1ccc2c(c1)C1(CCN(Cc3ccc(OCC(C)(C)N)nc3)CC1)OC2(C)C              pIC50          6.30 to 7.30
18  CNC(=O)C1OC2(CCN(Cc3cnn(-c4ccccc4)c3)[C@@H](C)C2)c2cc(Cl)ccc21 (single isomer, unassigned)              pIC50                ≤ 6.30
19  CS(=O)(=O)CCn1cc(CN2CCC3(CC2)OCC(O)c2ccc(Cl)cc23)cn1 (centres unmarked)              pIC50          6.30 to 7.30
20  CN1C(=O)C2(CCN(C[C@H]3C[C@@H](NC(=O)c4cc(C5CC5)no4)C3)CC2)c2cc(Cl)ccc21              pIC50                ≤ 6.30
21  C[C@H]1C[C@@]2(CCN1Cc1cn(CC(=O)Nc3cn[nH]c3)nn1)OCCc1ccc(Cl)cc12              pIC50                ≥ 7.30
22  Cc1cc(CN2CCC3(CC2)OC(C(N)=O)c2ccc(Cl)cc23)no1 (centres unmarked)              pIC50                ≤ 6.30
23  C[C@H]1C[C@@]2(CCN1Cc1cn(Cc3ccc(C(N)=O)o3)nn1)OCCc1ccc(Cl)cc12              pIC50                ≥ 7.30
24  CC(=O)N1CC2(CCN(Cc3cnn(C)c3)CC2)c2cc(Cl)ccc21              pIC50                ≤ 6.30
25  CN1C(=O)C2(CCN(Cc3cnn(CCO)c3)CC2)c2cc(Cl)ccc21              pIC50                ≤ 6.30
26  Cn1cnc(CN2CCC3(CC2)OC(C(N)=O)c2ccc(Cl)cc23)c1 (centres unmarked)              pIC50                ≤ 6.30
27  C[C@H]1C[C@@]2(CCN1Cc1c[nH]nn1)OCCc1ccc(Cl)cc12              pIC50                ≥ 7.30
28  NC(=O)C1OC2(CCN(Cc3cocn3)CC2)c2cc(Cl)ccc21 (centres unmarked)              pIC50                ≤ 6.30
29  CC1COC2(CCN(Cc3cnn(C)c3)CC2)c2ccccc21 (centres unmarked)              pIC50                ≤ 6.30
30  C[C@H]1C[C@@]2(CCN1Cc1cn(CC(C)(C)CS(N)(=O)=O)nn1)OCCc1ccc(Cl)cc12              pIC50                ≥ 7.30
31  C[C@H]1C[C@@]2(CCN1Cc1cn(Cc3ncc(C(N)=O)s3)nn1)OCCc1ccc(Cl)cc12              pIC50                ≥ 7.30
32  CNC(=O)Cn1cc(CN2CCC3(CC2)C(=O)Nc2ccc(C)cc23)cn1              pIC50                ≤ 6.30
